Origin of the recorded values: ChEMBL document CHEMBL1141462

Recorded CC50, one value per entry.
Test: Cytotoxicity against C8166 cells by MTT assay
Format: cell-based
Details: human
Output spec: scalar in µM, unitless text.

Check out these entries, answers already filled in.
smiles.input: CC1=CCC[C@@H]2[C@@](C)(CC(=O)O)[C@H](C)C[C@H](O)[C@@]12C
CC50, µM: 751
--
smiles.input: CC1=CCC[C@@H]2[C@@](C)(CC/C(C)=C/CO)[C@H](C)C[C@H](O[C@@H]3O[C@@H](C)[C@H](O[C@@H]4O[C@H](CO)[C@@H](O)[C@H](O)[C@H]4O)[C@@H](O)[C@H]3O)[C@@]12C
CC50, µM: 325

Kindly consider the entry below.
QUERY: What value of CC50 has been reported for the following molecule? CC(=O)OC[C@H]1O[C@@H](O[C@@H]2[C@@H](O)[C@@H](O)[C@H](O[C@H]3C[C@@H](C)[C@](C)(CC/C(C)=C/CO)[C@H]4CCC=C(C)[C@]34C)O[C@H]2C)[C@H](O)[C@@H](O)[C@@H]1O
RESULT: 136

====

Recorded CC50, one value per entry.
Assay: Cytotoxicity against C8166 cells by MTT assay
Assay type: cell-based
Conditions: human
Output spec: scalar in µM, unitless text.

compound: C=C[C@](C)(O)CC[C@@]1(C)[C@H](C)C[C@H](O[C@@H]2O[C@@H](C)[C@H](O[C@@H]3O[C@H](COC(C)=O)[C@@H](O)[C@H](O)[C@H]3O)[C@@H](O)[C@H]2O)[C@@]2(C)C(C)=CCC[C@H]12
unit.label: µM
CC50: 121
//
compound: C=C[C@@](C)(O)CC[C@@]1(C)[C@H](C)C[C@H](O)[C@@]2(C)C(C)=CCC[C@H]12
unit.label: µM
CC50: 653

Kindly consider the entry below.
QUERY: What value of CC50 has been reported for the following compound? Cc1cn([C@H]2C[C@H](N=[N+]=[N-])[C@@H](CO)O2)c(=O)[nH]c1=O [ZIDOVUDINE]
RESULT: 5750
